Assay: in vitro
Details: human, hela cells, % viability
Property measured: viability at 28.5 h, 10 µM (%)

{"Compound": "C=CCOc1ccccc1CNc1nc[nH]n1", "Property measured": "viability at 28.5 h, 10 µM", "Display unit": "%", "Reported value": 93.7}
{"Compound": "Cc1sc2c(C3CCN(C(=O)C4CC4C)CC3)nc(C)n2c1C (stereo not shown)", "Property measured": "viability at 28.5 h, 10 µM", "Display unit": "%", "Reported value": 66.4}
{"Compound": "CCCCc1noc(CN2CCCC2C(=O)NCc2ccco2)n1 (stereo not shown)", "Property measured": "viability at 28.5 h, 10 µM", "Display unit": "%", "Reported value": 88}
{"Compound": "O=C(COc1ccccc1Cl)NC(=S)Nc1cccc(C(=O)O)c1", "Property measured": "viability at 28.5 h, 10 µM", "Display unit": "%", "Reported value": 91.4}
{"Compound": "Cc1cc(Cl)cc(Cl)c1S(=O)(=O)Nc1nc(-c2cccnc2)cs1", "Property measured": "viability at 28.5 h, 10 µM", "Display unit": "%", "Reported value": 105}
{"Compound": "COc1cc([C@@]23CCC(=O)C[C@@H]2N(C)CC3)ccc1OCc1ccccc1", "Property measured": "viability at 28.5 h, 10 µM", "Display unit": "%", "Reported value": 106}
{"Compound": "COc1ccc(-c2nc(NS(C)(=O)=O)cc3cccnc23)cc1C", "Property measured": "viability at 28.5 h, 10 µM", "Display unit": "%", "Reported value": 85.5}
{"Compound": "O=C(N/N=C\\c1ccc([N+](=O)[O-])o1)c1nc(-c2ccccc2)cc(-c2ccccc2)n1", "Property measured": "viability at 28.5 h, 10 µM", "Display unit": "%", "Reported value": 95.5}
{"Compound": "CC(=O)N1CCC[C@H]2NC(=O)CNC(=O)C3(C/C=C/C[C@H]21)CCN(Cc1ccccc1O)CC3", "Property measured": "viability at 28.5 h, 10 µM", "Display unit": "%", "Reported value": 99.3}
{"Compound": "Nc1cccc(Oc2ccc(C(=O)O)c(C(=O)O)c2)c1", "Property measured": "viability at 28.5 h, 10 µM", "Display unit": "%", "Reported value": 89.4}
{"Compound": "O=C(Cn1cc(C(=O)NCc2ccccc2)ccc1=O)NC1(c2ccccc2)CCCC1", "Property measured": "viability at 28.5 h, 10 µM", "Display unit": "%", "Reported value": 95.7}
{"Compound": "O=C(NCc1ccccn1)c1nn[nH]c1Nc1cccc(Cl)c1", "Property measured": "viability at 28.5 h, 10 µM", "Display unit": "%", "Reported value": 79.4}
{"Compound": "O=C(O)CN(c1ccc([N+](=O)[O-])cc1)S(=O)(=O)c1ccccc1", "Property measured": "viability at 28.5 h, 10 µM", "Display unit": "%", "Reported value": 92.7}
{"Compound": "O=S(=O)(NC1CCN(Cc2ccccc2)CC1)c1ccc(-c2ccon2)s1", "Property measured": "viability at 28.5 h, 10 µM", "Display unit": "%", "Reported value": 93.5}
{"Compound": "CN(C)CCn1c(=O)c2c(ncn2C)n(C)c1=O", "Property measured": "viability at 28.5 h, 10 µM", "Display unit": "%", "Reported value": 115}
{"Compound": "Cc1cc2ncc(-c3[nH]ncc3[N+](=O)[O-])cn2n1", "Property measured": "viability at 28.5 h, 10 µM", "Display unit": "%", "Reported value": 98.1}

====

Reported viability at 28.5 h, 10 µM values for the following molecules.
Assay: in vitro
Conditions: human, hela cells, % viability
Property measured: viability at 28.5 h, 10 µM (%)

{"Molecule": "O=C(Cn1nc(C(F)(F)F)c2cccn2c1=O)NC1CCCC1", "Display unit": "%", "Reported value": 90.2}
{"Molecule": "COc1ccc(Cc2nc(C(C)(C)C)cs2)cc1 [CBK021497B]", "Display unit": "%", "Reported value": 85}
{"Molecule": "Cc1nc(C(C)NC(=O)CCc2cnn(C)c2)c(C)s1 (stereo not drawn)", "Display unit": "%", "Reported value": 92.6}

====

Assay: in vitro
Conditions: human, hela cells, % viability
Response field label: string, one of criterion met (viability at 28.5 h, 10 µM strictly below 90%) or criterion not met.

{"Entry smiles": "Cc1sc(NC(=S)NC(=O)COc2ccc(Br)cc2Cl)c(C(N)=O)c1C", "Assigned class": "criterion not met"}
{"Entry smiles": "COc1ccc2cc(CNc3ccc(Oc4ccccc4)cc3)c(=O)[nH]c2c1", "Assigned class": "criterion met"}
{"Entry smiles": "O=C(CCc1nc2ccccc2[nH]1)Nc1ccc(F)cc1", "Assigned class": "criterion not met"}
{"Entry smiles": "COCC(=O)Nc1ccc([C@@H](O)[C@H]2COCC(=O)N2C)cc1", "Assigned class": "criterion not met"}
{"Entry smiles": "O=C(/C=C/c1cn(-c2ccccc2)nc1-c1cccnc1)c1ccc(-c2ccccc2)cc1", "Assigned class": "criterion not met"}
{"Entry smiles": "C/C=C/c1ccc(OCCCSc2ccc(Cl)cc2)c(OC)c1", "Assigned class": "criterion not met"}
{"Entry smiles": "COc1ccc(NC(=O)c2cnc(-c3cccc(C(F)(F)F)c3)c(-c3ccncc3)c2)cc1", "Assigned class": "criterion met"}
{"Entry smiles": "O=C1CCCN1CCCNc1nccnc1-c1ccc(CO)cc1", "Assigned class": "criterion met"}
{"Entry smiles": "c1ccc(Oc2ccccc2-c2ccc(Nc3ccc(N4CCOCC4)cc3)nc2)cc1", "Assigned class": "criterion not met"}
{"Entry smiles": "COc1ccc2c(-c3ccccc3)cc(=O)n(CCS(=O)(=O)Oc3ccccc3)c2c1", "Assigned class": "criterion met"}

====

Readings of viability at 28.5 h, 10 µM for the listed compounds
Experiment: in vitro
Conditions: human, hela cells, % viability

{"Compound": "Cc1csc(Sc2nccnc2N2CCCC2)n1", "viability at 28.5 h, 10 µM (%)": 90.3}
{"Compound": "CCN(CC)S(=O)(=O)c1ccc(Nc2nc3ccc(Cl)cc3n3cnnc23)cc1", "viability at 28.5 h, 10 µM (%)": 87.6}
{"Compound": "Cc1ccc(-c2nn(-c3cc(N4CCN(CCO)CC4)ccc3[N+](=O)[O-])c(=O)c3ccccc23)cc1C", "viability at 28.5 h, 10 µM (%)": 82.6}
{"Compound": "CCS(=O)(=O)N1CC2C3c4ccccc4C(c4ccccc43)C2C1 (stereo not drawn)", "viability at 28.5 h, 10 µM (%)": 98.5}
{"Compound": "O=C(NC(c1ccc(Cl)cc1)c1ccsc1)C1CCN(S(=O)(=O)CC(F)(F)F)CC1 (stereo not drawn)", "viability at 28.5 h, 10 µM (%)": 89.1}
{"Compound": "CC(CCCC(C)(C)O)Nc1cncc(-c2ccccc2CO)n1 (stereo not drawn)", "viability at 28.5 h, 10 µM (%)": 96.3}
{"Compound": "O=C(c1ccc(F)cc1)N1CCC(c2cc3cccnc3[nH]2)CC1", "viability at 28.5 h, 10 µM (%)": 96.8}
{"Compound": "Cc1ccc(C(=O)c2coc3ccc(O)cc23)cc1", "viability at 28.5 h, 10 µM (%)": 89.1}
{"Compound": "CCOC(=O)Cc1nc2ccccc2[nH]1", "viability at 28.5 h, 10 µM (%)": 102}
{"Compound": "Cc1cc(C)nc(NS(=O)(=O)c2ccc(OC(F)(F)F)cc2)c1", "viability at 28.5 h, 10 µM (%)": 90.7}
{"Compound": "c1ccc(-c2nc3sc4c(ncn5cnnc45)c3c3c2CCC3)cc1", "viability at 28.5 h, 10 µM (%)": 84.3}
{"Compound": "CCc1cc(Br)ccc1S(=O)(=O)NCCC#N", "viability at 28.5 h, 10 µM (%)": 91.9}
{"Compound": "O=C1CNC(=O)C2(C/C=C/C[C@H]3COCC[C@H]3N1)CCN(Cc1ccc(F)cn1)CC2", "viability at 28.5 h, 10 µM (%)": 110}
{"Compound": "O=C(CCc1ccccc1)NNC(=O)C1C2C=CC(C2)C1C(=O)O (stereo not drawn)", "viability at 28.5 h, 10 µM (%)": 94.2}
{"Compound": "Cn1c(Cc2cccs2)nnc1SCC(=O)c1c[nH]c2ccccc12", "viability at 28.5 h, 10 µM (%)": 102}
{"Compound": "COc1ccc(C=O)cc1CSc1nc2ccccc2[nH]1", "viability at 28.5 h, 10 µM (%)": 94.7}
{"Compound": "Cn1cc(CNCC2CCCN2c2cccnn2)c(-c2cccnc2)n1 (stereo not drawn)", "viability at 28.5 h, 10 µM (%)": 96.2}
{"Compound": "Cn1c(-c2ccccc2)cnc1NC(=O)C1CCN(S(=O)(=O)c2ccc(F)cc2)C1 (stereo not drawn)", "viability at 28.5 h, 10 µM (%)": 95.6}
{"Compound": "CS(=O)(=O)N[C@H]1C[C@H]2C(=O)Nc3ccc(-c4ccc(F)cc4F)cc3C(=O)N2C1", "viability at 28.5 h, 10 µM (%)": 85.3}
{"Compound": "O=C(CN1CCCCC1Cn1cccn1)NCc1ccccn1 (stereo not drawn)", "viability at 28.5 h, 10 µM (%)": 84}
{"Compound": "CN(C)CCCNC(=O)c1ccc(/C=N/O)[n+](C)c1 [CBK278284I]", "viability at 28.5 h, 10 µM (%)": 88.8}
{"Compound": "CCOC(=O)c1sc(NS(=O)(=O)c2ccc(C(=O)O)cc2)cc1C", "viability at 28.5 h, 10 µM (%)": 100}
{"Compound": "O=C(O)c1cc(S(=O)(=O)Nc2ccc(OCc3ccccc3)cc2)ccc1Br", "viability at 28.5 h, 10 µM (%)": 113}
{"Compound": "C[S+]([O-])CCC(NS(=O)(=O)c1ccccc1)C(=O)O (stereo not drawn)", "viability at 28.5 h, 10 µM (%)": 93.2}
{"Compound": "CCOC(=O)c1cccc(-n2cc(-c3ccc(Br)cc3F)nn2)c1", "viability at 28.5 h, 10 µM (%)": 92.3}
{"Compound": "Cc1ccc(Nc2nc(N/N=C/c3cccc4ccccc34)nc(N3CCC(Cc4ccccc4)CC3)n2)cc1", "viability at 28.5 h, 10 µM (%)": 94.7}
{"Compound": "COc1cc(CNc2ncc(-c3ccc(N4CCOCC4)cc3)n3ccnc23)cc(OC)c1OC", "viability at 28.5 h, 10 µM (%)": 100}
